Attribute: pKd
biological target: T1, human CD36 (His-tagged) (human, UniProt P16671 30-439); assay: SPR (Biacore T200), His-captured CD36, bivalent analyte model
T1 construct: not shown: His tag
T1 sequence (P16671 30-439 limits assumed): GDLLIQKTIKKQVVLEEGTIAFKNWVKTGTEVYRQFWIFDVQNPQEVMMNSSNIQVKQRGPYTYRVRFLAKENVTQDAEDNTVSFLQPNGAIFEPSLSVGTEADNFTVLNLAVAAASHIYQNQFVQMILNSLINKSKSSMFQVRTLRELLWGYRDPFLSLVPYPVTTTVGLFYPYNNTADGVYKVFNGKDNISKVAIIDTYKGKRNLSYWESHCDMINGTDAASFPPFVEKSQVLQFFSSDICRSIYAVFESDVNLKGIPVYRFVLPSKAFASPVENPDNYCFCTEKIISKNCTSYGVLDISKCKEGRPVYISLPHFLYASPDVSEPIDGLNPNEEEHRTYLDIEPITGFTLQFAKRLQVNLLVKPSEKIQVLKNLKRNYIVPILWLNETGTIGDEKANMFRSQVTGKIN
Quick note: pKd values are minus log10 of concentrations in mol/L.

These solved cases illustrate the format of a correct answer.
{"binder": "14G04 (antibody, human IgG1, V domains shown, Chimeric: mouse variable regions on human IgG1 LALA (L234A/L235A); also called 014G04) VH: QVQLQQSGAELVRSGASVRLSCTASGFNIKDYYIHWVKQRPEQGLEWIGWIDPENGDTEYAPRFQDKATMTADTSSNTAYLQLSSLTSEDTAVYYCNGWLLSGNGMDYWGQGTSVTVSS VL: DIVMTQSHKFMSTSVGDRVSITCKASQDVGTAVAWYQQKPGQSPKLLIYWASTRHTGVPDRFTGSGSGTDFTLTISNVQSEDLADYFCQQYSSYPTFGGGTKLEIK", "pKd": 8.64}
{"binder": "28G04 (antibody, human IgG1, V domains shown, Chimeric: mouse variable regions on human IgG1 LALA (L234A/L235A); also called 028G04) VH: EVQLQQSGPELVKPGASVKISCKTSGYTFTEYTIHWVKQSHGKSLEWIGGIIPNNGGSSHKQNFKDKATLTVDKSSSTAYMELRSLTSEDSAVYYCARAGDYAFDYWGQGTTLTVSS VL: ETTVTQSPASLSMAIGEKVTIRCITSTDIDDDMNWYQQKPGEPPKLLISEGNTLRPGVPSRFSSSGYGTDFVFTIENMLSEDVADYYCLQSGTLPFTFGSGTKLEIK", "pKd": 7.85}
{"binder": "6G04 (antibody, human IgG1, V domains shown, Chimeric: mouse variable regions on human IgG1 LALA (L234A/L235A); also called 06G04; 006G04) VH: QVQLQQSGAELVMPGASVKMSCKASGYTFTDYWMHWVKQRPGQGLEWIGSIDTSDSYTTYSQKFKGKATLTVDESSSTAYMELARLTSEDSAIYYCVRGEDYEGTWFAYWGQGTLVTVSA VL: ETTVTQSPASLSVATGEKVTIRCITSTDIDDDMNWYQQKPGEPPKLLISEGNTLRPGVPSRFSSSGYGTDFVFTIENTLSEDVADYYCLQSDNMPLTFGAGTKLELK", "pKd": 9.29}
{"binder": "7G04 (antibody, human IgG1, V domains shown, Chimeric: mouse variable regions on human IgG1 LALA (L234A/L235A); also called 07G04; 007G04) VH: QVQMKESGAELVRPGASVKLSCKALGYTFTDYEIQWVKQTPVHGLEWIGGIHPGSSGIVYNQKFKGKATLTADKSSSTAYMELSSLTSEDSAVYYCTRGGGYDGAWFAYWGQGSLVTVSA VL: ETTVTQSPASLSMAIGEKVTIRCITSTDIDDDMNWYQQKPGEPPKLLISEGNTLRPGVPSRFSSSGYGTDFVFTIENMLSEDVADYYCLQSDNLPFTFGSGTKLEIK", "pKd": 8.31}
{"binder": "13G04 (antibody, human IgG1, V domains shown, Chimeric: mouse variable regions on human IgG1 LALA (L234A/L235A); also called 013G04) VH: QVQLQQSGAELVRPGASVKLSCKASGYTFTSYWMNWVKQRPGQGLEWIGMIDPSDNETHYNQMFKDKATLTVDKSSSTAYMQLSSLTSEDSAVYYCARSDYGNGYSFYLDVWGAGTTVTVSS VL: DIVLTQSPASLAVSLGQRATISCRASESVDSYGNSFMHWYQQKPGQPPKLLIYRASNLESGIPARFSGSGSRTDFTLTINPVEADDVATYYCQQSNEDPWTFGGGTKLEIK", "pKd": 8.82}

Now for another entry.
*Q* Which pKd is reported for this binder? 11G04 (antibody, human IgG1, V domains shown, Chimeric: mouse variable regions on human IgG1 LALA (L234A/L235A); also called 011G04) VH: EVQLQQSGAELVRPGASVTLSCKASGYRFSDYEMQWVKQTPVHGLEWIGGIDPETGGIAYNQKFKVKATLTADKSSSTAFMELRSLTSEDSAVYYCTRKLDFDYWGQGTTLTVSS VL: ETTVTQSPASLSVATGEKVTIRCITSTDIDDDMNWYQQKPGEPPKLLISEGNTLRPGVPSRFSSSGYGTDFVFTIENMLSEDVADYYCLQSDNLPLTFGAGTKLELK
*A* 7.72

Each recorded value in this set is attributed to patent US20250206836A1.
